Collected recombinant UMI read abundance (log10) values appear next to each entry.
assay: recombinant UMI read abundance after kanamycin selection (control-corrected) (log10(CPM+1)); higher = more efficient recombination; extreme values may be limits of the assay; sequences stand for … in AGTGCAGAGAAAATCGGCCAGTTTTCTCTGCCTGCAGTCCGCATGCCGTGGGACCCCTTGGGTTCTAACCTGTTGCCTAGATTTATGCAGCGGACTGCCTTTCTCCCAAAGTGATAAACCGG…AGGTTGGTTTCACT; site = the 11-nt donor;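 also: IS621 bridge recombinase in Escherichia coli cells against a fixed T5 target plasmid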

Study these solved cases before continuing.
CCGCTTACATGGACCGGTTTTCCCGGTAATCCGTATTTGGA (site CCGCTTACTTC); 0.539
GCGAAGCCATGGACCGGTTTTCCCGGTAATCCGTATTTGGG (site GCGTAGCCTCC); 0.0104
TCAGTATCATGGACCGGTTTTCCCGGTAATCCGTATTTGTA (site TCAGTATCTTA); 2.5
CGATCGACATGGACCGGTTTTCCCGGTAATCCGTATTTGTC (site CGATCGACTTA); 0

Task: Entry GTGAGAACATGGACCGGTTTTCCCGGTAATCCGTATTTGGC (site GTTAGAACTGC) needs its recombinant UMI read abundance (log10) filled in; supply it.
Result: 0

Task: Give reported recombinant UMI read abundance (log10) value for CTTCCCTCATGGACCGGTTTTCCCGGTAATCCGTATTTGTA (site CTTCACTCTTA)
Result: 0.00365

Task: For GCTTTAACATGGACCGGTTTTCCCGGTAATCCGTATTTGCT (site GCTTTAACTAG) , write its recombinant UMI read abundance (log10).
Result: 0.0522

Task: State, in one line, measured recombinant UMI read abundance (log10) of CTGCAAGCATGGACCGGTTTTCCCGGTAATCCGTATTTGTA (site CTGCAAGCTTA)
Result: 1.8

Task: Quickly give me recorded recombinant UMI read abundance (log10) for CGGCTTTCATGGACCGGTTTTCCCGGTAATCCGTATTTGGC (site CGGCTTTCTGC)
Result: 0.438

Source listed as the supplement of paper PMC11208160.
